- EXPERIMENTAL_TARGET: ATP-dependent translocase ABCB1 (Homo sapiens)
- TEST_DETAILS: Inhibition of MDR1-mediated rhodamine 123 uptake expressed in mouse L5178Y cells transfected with pHa MDR1/A assessed as fluorescence activity ratio at 40 ug/mL by flow cytometry relative to untreated control
- Assay type: cell-based
QUANTITY_NAME: Ratio

{"columns": ["SMI", "MEASURED_RESULT"],
 "data": [
  ["C=C1[C@H](OC(C)=O)C[C@@H](OC(C)=O)C(C)(C)/C=C/[C@@H](C)C(=O)[C@@]2(OC(C)=O)C[C@@](C)(OC(C)=O)[C@H](OC(C)=O)[C@@H]2[C@H]1OC(C)=O", 15.2],
  ["C=C1[C@H](OC(=O)C(C)C)C[C@@H](OC(=O)c2cccnc2)C(C)(C)/C=C/[C@@H](C)C(=O)[C@@]2(OC(C)=O)C[C@@](C)(OC(C)=O)[C@H](OC(C)=O)[C@@H]2[C@H]1OC(C)=O", 36.4],
  ["C=C1[C@H](OC(C)=O)C[C@@H](OC(=O)c2cccnc2)C(C)(C)/C=C/[C@@H](C)C(=O)[C@@]2(OC(C)=O)C[C@@](C)(OC(C)=O)[C@H](OC(C)=O)[C@@H]2[C@H]1OC(C)=O", 2.3],
  ["C=C1[C@H](OC(=O)C(C)C)CC(=O)C(C)(C)/C=C/[C@@H](C)C(=O)[C@@]2(OC(C)=O)C[C@H](C)[C@H](OC(C)=O)[C@@H]2[C@H]1OC(C)=O", 52.5],
  ["C=C1[C@H](OC(C)=O)C[C@@H](OC(=O)c2cccnc2)C(C)(C)/C=C/[C@@H](C)C(=O)[C@@]2(OC(C)=O)C[C@@](C)(OC(=O)c3cccnc3)[C@H](OC(C)=O)[C@@H]2[C@H]1OC(C)=O", 19.8]
]}

###

- EXPERIMENTAL_TARGET: ATP-dependent translocase ABCB1 (Homo sapiens, UniProt P08183)
- Sequence (P08183 whole entry): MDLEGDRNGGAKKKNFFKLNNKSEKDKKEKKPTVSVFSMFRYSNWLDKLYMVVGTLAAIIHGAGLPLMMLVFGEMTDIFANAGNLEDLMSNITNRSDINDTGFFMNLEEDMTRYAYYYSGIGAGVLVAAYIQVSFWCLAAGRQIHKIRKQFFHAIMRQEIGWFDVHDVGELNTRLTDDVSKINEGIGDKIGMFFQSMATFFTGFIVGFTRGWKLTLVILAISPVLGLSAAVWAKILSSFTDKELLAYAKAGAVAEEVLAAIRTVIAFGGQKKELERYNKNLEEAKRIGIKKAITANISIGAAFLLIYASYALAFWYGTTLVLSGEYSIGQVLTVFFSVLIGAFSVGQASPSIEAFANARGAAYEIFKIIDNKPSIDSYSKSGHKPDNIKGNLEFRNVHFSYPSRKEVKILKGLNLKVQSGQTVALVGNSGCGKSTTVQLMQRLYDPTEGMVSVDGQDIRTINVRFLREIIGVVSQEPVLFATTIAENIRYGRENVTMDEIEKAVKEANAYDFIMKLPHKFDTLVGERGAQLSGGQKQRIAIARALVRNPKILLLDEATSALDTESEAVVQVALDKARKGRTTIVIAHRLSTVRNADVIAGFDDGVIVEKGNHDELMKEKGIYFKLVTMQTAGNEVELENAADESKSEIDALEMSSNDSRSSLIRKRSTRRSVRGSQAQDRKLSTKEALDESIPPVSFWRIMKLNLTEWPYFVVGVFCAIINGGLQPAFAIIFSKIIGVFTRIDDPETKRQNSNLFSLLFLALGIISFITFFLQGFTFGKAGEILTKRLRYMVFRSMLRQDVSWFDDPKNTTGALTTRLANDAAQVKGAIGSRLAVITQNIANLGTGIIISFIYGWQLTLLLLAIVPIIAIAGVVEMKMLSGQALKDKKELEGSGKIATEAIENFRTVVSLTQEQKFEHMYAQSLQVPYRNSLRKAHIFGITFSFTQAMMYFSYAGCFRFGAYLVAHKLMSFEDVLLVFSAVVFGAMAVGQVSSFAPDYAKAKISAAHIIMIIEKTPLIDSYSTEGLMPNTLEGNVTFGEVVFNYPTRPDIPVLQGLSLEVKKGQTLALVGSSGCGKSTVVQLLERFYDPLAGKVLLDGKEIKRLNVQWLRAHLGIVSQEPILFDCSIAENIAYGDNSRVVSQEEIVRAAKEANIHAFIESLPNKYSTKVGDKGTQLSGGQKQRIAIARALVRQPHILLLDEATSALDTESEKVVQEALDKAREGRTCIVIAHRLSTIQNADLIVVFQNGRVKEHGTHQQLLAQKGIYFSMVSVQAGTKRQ
- TEST_DETAILS: Inhibition of MDR1-mediated rhodamine 123 uptake expressed in mouse L5178Y cells transfected with pHa MDR1/A assessed as fluorescence activity ratio at 4 ug/mL by flow cytometry relative to untreated control
- Type: cell-based
We label by threshold. Values of Ratio strictly beneath 6 are 1 (yes). Values of 6 and up are 0 (no).

{"columns": ["SMI", "LABEL_VALUE"],
 "data": [
  ["C=C1[C@H](OC(=O)C(C)C)[C@@H](OC(C)=O)[C@@H](OC(C)=O)C(C)(C)/C=C/[C@@H](C)C(=O)[C@@]2(OC(C)=O)C[C@@](C)(OC(C)=O)[C@H](OC(C)=O)[C@@H]2[C@H]1OC(C)=O", "1 (yes)"],
  ["C=C1[C@H](OC(C)=O)C[C@@H](OC(=O)c2cccnc2)[C@](C)(OC(C)=O)C/C=C/[C@@H](C)C(=O)[C@@]2(OC(C)=O)C[C@@](C)(OC(=O)c3cccnc3)[C@H](OC(C)=O)[C@@H]2[C@H]1OC(C)=O", "1 (yes)"],
  ["C=C1[C@H](OC(C)=O)CC(=O)C(C)(C)/C=C/[C@@H](C)C(=O)[C@@]2(OC(C)=O)C[C@@](C)(OC(C)=O)[C@H](OC(C)=O)[C@@H]2[C@H]1OC(C)=O", "1 (yes)"],
  ["C=C1[C@H](OC(C)=O)C[C@@H](OC(=O)c2cccnc2)C(C)(C)/C=C/[C@@H](C)C(=O)[C@@]2(OC(C)=O)C[C@@](C)(OC(C)=O)[C@H](OC(C)=O)[C@@H]2[C@H]1OC(C)=O", "1 (yes)"],
  ["C=C1[C@H](OC(C)=O)C[C@@H](OC(=O)c2cccnc2)C(C)(C)/C=C/[C@@H](C)C(=O)[C@@]2(OC(C)=O)C[C@@](C)(OC(=O)c3cccnc3)[C@H](OC(C)=O)[C@@H]2[C@H]1OC(C)=O", "0 (no)"]
]}
